# EXPERIMENTAL_TARGET: RNA-directed RNA polymerase (Hepacivirus hominis, UniProt O39930, L419M)
# Sequence (O39930 entry or part of it L419M): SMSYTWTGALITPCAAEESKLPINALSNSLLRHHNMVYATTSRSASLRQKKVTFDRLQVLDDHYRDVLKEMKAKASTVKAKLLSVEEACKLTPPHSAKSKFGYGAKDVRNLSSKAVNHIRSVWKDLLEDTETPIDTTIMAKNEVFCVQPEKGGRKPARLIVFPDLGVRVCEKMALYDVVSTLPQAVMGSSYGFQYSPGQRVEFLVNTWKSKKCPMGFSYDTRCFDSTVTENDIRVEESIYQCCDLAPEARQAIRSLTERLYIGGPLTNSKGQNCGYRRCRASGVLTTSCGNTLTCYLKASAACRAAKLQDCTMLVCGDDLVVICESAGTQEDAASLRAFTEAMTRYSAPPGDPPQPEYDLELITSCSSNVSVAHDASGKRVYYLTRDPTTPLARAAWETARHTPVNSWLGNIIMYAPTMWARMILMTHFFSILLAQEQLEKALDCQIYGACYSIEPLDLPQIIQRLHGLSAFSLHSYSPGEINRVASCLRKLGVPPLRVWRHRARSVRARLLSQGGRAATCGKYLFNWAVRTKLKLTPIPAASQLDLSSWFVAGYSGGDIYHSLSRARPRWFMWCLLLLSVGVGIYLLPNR
# TEST: Inhibition of HCV NS5B polymerase L419M mutant
Recorded Kd for the following compounds
RECORDED_ENDPOINT: Kd (µM)

In [3]: df
Out[3]:
                               query_smiles  result
0  Cc1ccc(-n2nncc2-c2cc(-c3ccccc3)sc2C(=O)O)cc1    23.1
1  CC(C)N(c1cc(-c2ccccc2)sc1C(=O)O)C(=O)[C@H]1CC[C@H](C)CC1   0.427
2  C[C@H]1CC[C@H](n2nncc2-c2cc(-c3ccccc3)sc2C(=O)O)CC1    4.48

====

Recorded CC50 for the following compounds
# TEST: Cytotoxicity against human HuH7 cells by WST-1 assay
# Type: cell-based, Huh-7
RECORDED_ENDPOINT: CC50 (µM)

In [3]: df
Out[3]:
                               query_smiles  recorded_endpoint  result_qualifier  result
0  CC(C)N(c1cc(-c2ccccc2)sc1C(=O)O)C(=O)[C@H]1CC[C@H](C)CC1               CC50                 =      48
1  C[C@H]1CC[C@H](n2nncc2-c2cc(-c3ccccc3)sc2C(=O)O)CC1               CC50                 >      50
2  C[C@H]1CC[C@H](c2ccccc2-c2cc(-c3ccccc3)sc2C(=O)O)CC1               CC50                 =      20
3  Cc1ccc(-n2nncc2-c2cc(-c3ccccc3)sc2C(=O)O)cc1               CC50                 >      30

====

# System: Hepatitis C virus
# TEST: Antiviral activity against […] Con1 GT1b infected in HuH7 cells by replicon assay
# Assay type: functional, Hepacivirus hominis
# ASSAY_CONTEXT: Huh-7
RECORDED_ENDPOINT: EC50 (µM)

>>> df
                               query_smiles  result_qualifier  result
0  CC(C)N(c1cc(-c2ccccc2)sc1C(=O)O)C(=O)[C@H]1CC[C@H](C)CC1                 =    0.23
1  C[C@H]1CC[C@H](c2ccccc2-c2cc(-c3ccccc3)sc2C(=O)O)CC1                 =      12
2  Cc1ccc(-n2nncc2-c2cc(-c3ccccc3)sc2C(=O)O)cc1                 >      30
3  C[C@H]1CC[C@H](n2nncc2-c2cc(-c3ccccc3)sc2C(=O)O)CC1                 =      15

====

# TEST: Inhibition of HCV GT1b NS5B polymerase
# Parameters: species or system Hepacivirus hominis
RECORDED_ENDPOINT: IC50 (nM)

                               query_smiles  result
0    CCCCOc1ccccc1-c1cc(-c2ccccc2)sc1C(=O)O   16000
1  Cc1ccc(-c2cc(=O)[nH]n2-c2cc(-c3ccccc3)sc2C(=O)O)cc1     620
2  O=C(O)c1sc(-c2ccccc2)cc1-c1conc1-c1ccc(Cl)cc1    2600
3  Cc1ccc(-c2cc(=O)[nH]nc2-c2cc(-c3ccccc3)sc2C(=O)O)cc1    3300
